System: Kidney
Test summary: Biodistribution in kidney of mouse EMT6 tumor bearing BALB/c mouse at 10 to 20 uCi after 5 mins
Assay type: ADME, organism-based
Experimental context: in vivo
Below, each entry is listed alongside its reported Drug uptake.
Test readout: Drug uptake (% ID/g)

compound_structure_string=COc1cc2c(cc1OC)CN(CCCCNC(=O)c1cc(I)ccc1OCC[18F])CC2 study_system=Kidney value_reported=36.07
compound_structure_string=COc1cc2c(cc1OC)CN(CCCCNC(=O)c1cc(I)cc(OC)c1OCC[18F])CC2 study_system=Kidney value_reported=19.98
compound_structure_string=COc1cc2c(cc1OC)CN(CCCCNC(=O)c1cc(C)ccc1OCC[18F])CC2 study_system=Kidney value_reported=29.18
compound_structure_string=COc1cc2c(cc1OC)CN(CCCCNC(=O)c1cc(Br)ccc1OCC[18F])CC2 study_system=Kidney value_reported=42.94
